- targetOrSystem: Endoribonuclease toxin MazF (Escherichia coli (strain K12)) (UniProt P0AE70)
- Sequence (P0AE70 whole entry, looked up): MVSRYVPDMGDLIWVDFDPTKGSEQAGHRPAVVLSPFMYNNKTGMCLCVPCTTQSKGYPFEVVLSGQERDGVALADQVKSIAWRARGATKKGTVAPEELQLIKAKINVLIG
- procedureSummary: activators of E. coli MazEF toxin-antitoxin RNase, primary screen, biochemical, fluorescence, uHTS (AID 504720)
- runParameters: FAM/BHQ RNA-DNA oligo cleavage fluorescence, 5 h, at 20 µM
In all, about 350,000 compounds went through this assay and about 1,100 (0.31%) were called active. Rule as the data show it: active = activation above about 50%; inactive = the rest. Many of the other results were omitted from the sample, so actives are more common in it than they were.
Parameter call: string, one of y (active), n (inactive)

Example cases with answers are listed next.
{"molecule": "CC(C)N=C1CCCC1C(=S)SSC(=S)C1CCCC1=NC(C)C (stereo unspecified)", "assignedClass": "n"}
{"molecule": "Cc1nc(SCC(=O)Nc2cc(C)on2)c2c3c(sc2n1)CCCC3", "assignedClass": "y"}
{"molecule": "O=C(NC(=S)Nc1cc(C(F)(F)F)ccc1N1CCOCC1)c1ccc(-c2cccc(Cl)c2)o1", "assignedClass": "n"}

Lookup: Please indicate how the test categorized CCC(=O)OCc1c(C(F)(F)F)nn(C)c1Oc1cccc(C(F)(F)F)c1 .
Found: n

Lookup: // outcome(item) with item = O=S(=O)(c1cnccc1N1CCN(/N=C/c2ccc(Br)cc2)CC1)N1CCCCC1
Found: n

Lookup: Outcome? COc1ccc(C)cc1N(C)C(=O)c1coc(=O)c2ccccc12
Found: n

Lookup: What did the test return for O=C(NCCSc1ncc(-c2ccccc2)[nH]1)c1ccco1 ?
Found: n

Lookup: Name the outcome recorded for CCOc1ccccc1N1CCN(C(=O)c2ccc3[nH]c(C)c(C)c3c2)CC1 in the assay.
Found: n

Lookup: // outcome(item) with item = CC(C(=O)NC1CCS(=O)(=O)C1)N1C(=O)/C(=C/c2ccc(Cl)cc2)SC1=S (stereo unspecified)
Found: n

Lookup: Please share the test call associated with COc1cc(C(=O)NCc2nnc(SCC(=O)Nc3nc4ccc(C)cc4s3)o2)cc(OC)c1OC .
Found: n

Lookup: For COC(=O)c1c(-c2ccsc2)oc2ccc(-c3cc(OC)c(OC)c(OC)c3)cc12 , what call appears in the results of this test?
Found: n

Lookup: Status in this test for COc1cc(N2CCCC2)c(OC)cc1/C=C(/C#N)c1cccc(Br)c1 ?
Found: n

Lookup: Returns: the outcome recorded for O=C(Nc1ccc2oc(-c3ccc4ccccc4c3)nc2c1)c1cccs1 in this assay.
Found: y

Lookup: Tell me the assay call for O=C(CCN1C(=O)/C(=C/c2cccs2)SC1=S)NNC(=O)c1cccc(O)c1 please.
Found: y

Lookup: # lookup: test call for CCOCCN(C=O)c1cccc(OC)c1
Found: n

Lookup: For CC(=O)c1ccc(N2CCN(CC(=O)Nc3ccccc3N3CCOCC3)CC2)cc1 , what call appears in the results of this test?
Found: n

Lookup: Outcome? CCNC(=O)NC(=O)C(C)OC(=O)C1CCN(S(=O)(=O)c2ccccc2F)CC1 (stereo unspecified)
Found: n

Lookup: Recorded call for CN(CCNC(=O)c1cc2c(-c3ccccc3F)nn(C)c2s1)C1CCCCC1 ?
Found: n
